system: CCRIS mutagenicity, Ames/micronucleus/aberration tests; experiment: CCRIS mutagenicity studies; details: Test System: AMES SALMONELLA TYPHIMURIUM; Strain/Indicator: TA1537; Metabolic Activation: NONE; Method: PREINCUBATION
Active and inactive are the calls of the source. The rule behind the calls is not given here.
Please reply with one of these outcomes: active, inactive

Task: Could you check what this test reported for CCOC(=O)CBr ?
Output: inactive

Task: Could you check what this test reported for CCCCCCCCCCCCCCCCCC[N+](C)(C)Cc1ccccc1 ?
Output: inactive

Task: Could you check what this test reported for COC(=O)c1ccccc1O ?
Output: inactive

Task: Could you check what this test reported for O=C1c2ccccc2C(=O)c2c(O)cccc21 ?
Output: active

Task: Could you check what this test reported for COc1ccc(C(=O)Nc2ccccc2)cc1[N+](=O)[O-] ?
Output: inactive

Task: Could you check what this test reported for COC1=C(OC)C(=O)C(C/C=C(\C)CC/C=C(\C)CC/C=C(\C)CC/C=C(\C)CC/C=C(\C)CC/C=C(\C)CC/C=C(\C)CC/C=C(\C)CC/C=C(\C)CCC=C(C)C)=C(C)C1=O ?
Output: inactive

Task: Could you check what this test reported for C[N+](C)(C)CCO ?
Output: inactive

Task: Could you check what this test reported for CCCCC(CC)COC(=O)c1ccc(N(C)N=O)cc1 (configuration not stated) ?
Output: inactive

Task: Could you check what this test reported for Cc1cc(N)c(S(=O)(=O)O)cc1Cl ?
Output: inactive

Task: Could you check what this test reported for CCCCOCCOCCSC#N ?
Output: inactive

Task: Could you check what this test reported for C=CC(=O)OCC(Br)CBr (configuration not stated) ?
Output: inactive

Task: Could you check what this test reported for COC(C)CCO (configuration not stated) ?
Output: inactive

Task: Could you check what this test reported for COc1cc(/C=C/C(=O)CC(=O)/C=C/c2ccc(O)c(OC)c2)ccc1O ?
Output: inactive

Task: Could you check what this test reported for CCN(Cc1ccccc1)c1ccccc1 ?
Output: inactive

Task: Could you check what this test reported for CCCCCCC(=O)O ?
Output: inactive

Task: Could you check what this test reported for CN1CCC[C@H]1c1cccnc1 ?
Output: inactive

Task: Could you check what this test reported for C[n+]1c2ccccc2cc2ccccc21 ?
Output: inactive

Task: Could you check what this test reported for CCCCCCCCCCC1CO1 (configuration not stated) ?
Output: inactive

Task: Could you check what this test reported for COc1ccccc1[N+](=O)[O-] ?
Output: inactive

Task: Could you check what this test reported for CC(O)CN(CC(C)O)CC(C)O (configuration not stated) ?
Output: inactive

Task: Could you check what this test reported for COC(=O)[C@H]1[C@H]2C[C@@H]3c4[nH]c5cc(OC)ccc5c4CCN3C[C@H]2C[C@@H](OC(=O)/C=C/c2cc(OC)c(OC)c(OC)c2)[C@@H]1OC ?
Output: inactive

Task: Could you check what this test reported for O=O ?
Output: inactive

Task: Could you check what this test reported for CCCCCCCCO ?
Output: inactive

Task: Could you check what this test reported for OCCCCCCO ?
Output: inactive

Task: Could you check what this test reported for Nc1c2ccccc2nc2ccc(Cl)cc12 ?
Output: active

Task: Could you check what this test reported for C[C@@H](O)[C@H]1C(=O)N2C(C(=O)O)=C([C@H]3CCCO3)S[C@H]12 ?
Output: inactive

Task: Could you check what this test reported for CC(C)(C)C(=O)C1C(=O)c2ccccc2C1=O ?
Output: inactive

Task: Could you check what this test reported for COC(=O)c1ccc(C(=O)OC)cc1 ?
Output: inactive

Task: Could you check what this test reported for COC(=O)C1=C(C)NC(COC(N)=O)=C(C(=O)OC(C)C)C1c1cccc(Cl)c1Cl (configuration not stated) ?
Output: inactive

Task: Could you check what this test reported for C1CN(SSN2CCOCC2)CCO1 ?
Output: inactive

Task: Could you check what this test reported for CC(C)(C)S(=O)(=O)C[C@@H](Cc1ccccc1)C(=O)N[C@@H](Cc1cnc[nH]1)C(=O)N[C@@H](CC1CCCCC1)[C@@H](O)[C@@H](O)C1CC1 ?
Output: inactive

Task: Could you check what this test reported for CC(=O)c1ccccc1[N+](=O)[O-] ?
Output: inactive

Task: Could you check what this test reported for CCCOC(C(=O)OC1CCN(C)CC1)(c1ccccc1)c1ccccc1 ?
Output: inactive

Task: Could you check what this test reported for CC(=O)CC(C)C ?
Output: inactive

Task: Could you check what this test reported for COc1ccc2cc1Oc1ccc(cc1)C[C@H]1c3c(cc4c(c3Oc3cc5c(cc3OC)CCN(C)[C@@H]5C2)OCO4)CCN1C ?
Output: inactive

Task: Could you check what this test reported for CCOCCCl ?
Output: inactive

Task: Could you check what this test reported for CC(=O)C(C)O (configuration not stated) ?
Output: inactive

Task: Could you check what this test reported for O=S1(=O)CCCC1 ?
Output: inactive

Task: Could you check what this test reported for NCCCN1CCN(CCCN)CC1 ?
Output: inactive

Task: Could you check what this test reported for O=C1NC(=O)C(c2ccccc2)(c2ccccc2)N1 ?
Output: inactive

Task: Could you check what this test reported for ClCc1ccc(Cl)cc1 ?
Output: inactive

Task: Could you check what this test reported for O=c1[nH]c(=O)[nH]c(=O)[nH]1 ?
Output: inactive

Task: Could you check what this test reported for CCNNCC ?
Output: inactive

Task: Could you check what this test reported for CCc1cn([C@H]2C[C@H](O)[C@@H](CO)O2)c(=O)[nH]c1=O ?
Output: inactive

Task: Could you check what this test reported for Cc1ccc(N)cc1N ?
Output: inactive

Task: Could you check what this test reported for OC/C(Br)=C(\Br)CO ?
Output: inactive

Task: Could you check what this test reported for C(=C\c1ccccc1)/c1ccccc1 ?
Output: inactive

Task: Could you check what this test reported for Cc1ccc(S(=O)(=O)O)cc1C ?
Output: inactive

Task: Could you check what this test reported for Clc1ccc(C(Cl)(Cl)Cl)cc1 ?
Output: inactive

Task: Could you check what this test reported for C[Si](C)(Cl)Cl ?
Output: inactive

Task: Could you check what this test reported for CCCSC(=O)Cl ?
Output: inactive

Task: Could you check what this test reported for CCCCCCCCCCCCCCCCCC(=O)NCCNC(=O)CCCCCCCCCCCCCCCCC ?
Output: inactive

Task: Could you check what this test reported for NCCNCCO ?
Output: inactive

Task: Could you check what this test reported for COCCOCCOC ?
Output: inactive

Task: Could you check what this test reported for CC(CCl)OP(=O)(OC(C)CCl)OC(C)CCl (configuration not stated) ?
Output: inactive

Task: Could you check what this test reported for CC(=O)[O][Hg][c]1ccccc1 ?
Output: inactive

Task: Could you check what this test reported for CCCCC1C(=O)N(c2ccccc2)N(c2ccccc2)C1=O ?
Output: inactive

----------
tested on: CCRIS mutagenicity, Ames/micronucleus/aberration tests; test: CCRIS mutagenicity studies; settings: Test System: AMES SALMONELLA TYPHIMURIUM; Strain/Indicator: TA1535; Metabolic Activation: HAMSTER, LIVER, S-9, AROCLOR 1254 (30%); Method: PREINCUBATION
Active and inactive are the calls of the source. The rule behind the calls is not given here.
Please reply with one of these outcomes: active, inactive

Task: Could you check what this test reported for COC(=O)C(c1ccccc1)C1CCCCN1 (centres undefined) ?
Output: inactive

Task: Could you check what this test reported for CCCCOCCOCCSC#N ?
Output: inactive

Task: Could you check what this test reported for CC(=O)CC(C)C ?
Output: inactive

Task: Could you check what this test reported for CC1OC1C (centres undefined) ?
Output: active

Task: Could you check what this test reported for COC[CH2][Hg][Cl] ?
Output: inactive

Task: Could you check what this test reported for N#CC(O)c1ccccc1 (centres undefined) ?
Output: inactive

Task: Could you check what this test reported for CC(C)(C)c1ccc(OCC2CO2)cc1 (centres undefined) ?
Output: inactive

Task: Could you check what this test reported for CCCCCCC(=O)O ?
Output: inactive

Task: Could you check what this test reported for CCCCCCCCCCCC(=O)[O][Sn]([CH2]CCC)([CH2]CCC)[O]C(=O)CCCCCCCCCCC ?
Output: inactive

Task: Could you check what this test reported for CCN(CC)c1ccc2c(-c3ccccc3C(=O)O)c3ccc(=[N+](CC)CC)cc-3oc2c1 ?
Output: inactive

Task: Could you check what this test reported for O=[N+]([O-])c1ccccc1Nc1ccccc1 ?
Output: inactive

Task: Could you check what this test reported for Nc1c(Cl)cc(Cl)cc1Cl ?
Output: inactive

Task: Could you check what this test reported for CCCCCCCCCCCCCCCCC1CO1 (centres undefined) ?
Output: inactive

Task: Could you check what this test reported for CN(C)c1ccc(N(C)C)cc1 ?
Output: inactive

----------
tested on: CCRIS mutagenicity, Ames/micronucleus/aberration tests; test: CCRIS mutagenicity studies; details: Test System: AMES SALMONELLA TYPHIMURIUM; Strain/Indicator: TA104; Metabolic Activation: NONE; Method: PREINCUBATION
The source made the active and inactive calls. No rule for the calls is given here.
Please reply with one of these outcomes: active, inactive

Task: Could you check what this test reported for O=C(O)/C(Cl)=C(\CCl)C(Cl)Cl ?
Output: active

Task: Could you check what this test reported for O=O ?
Output: active

Task: Could you check what this test reported for C=C1CC(=O)O1 ?
Output: inactive

Task: Could you check what this test reported for N#CC1=C(C#N)C(=O)C(Cl)=C(Cl)C1=O ?
Output: active

Task: Could you check what this test reported for CCCCCCCCO ?
Output: inactive

Task: Could you check what this test reported for CCOCCCl ?
Output: active

Task: Could you check what this test reported for CCOC(=O)CBr ?
Output: inactive

Task: Could you check what this test reported for O[C@H]1[C@H]2O[C@H]2c2c(ccc3ccccc23)[C@@H]1O ?
Output: active

Task: Could you check what this test reported for CCc1cn([C@H]2C[C@H](O)[C@@H](CO)O2)c(=O)[nH]c1=O ?
Output: inactive

Task: Could you check what this test reported for CC1=CC(=O)c2c(O)cccc2C1=O ?
Output: active

Task: Could you check what this test reported for C=C(C)CC(C)(C)C ?
Output: inactive

Task: Could you check what this test reported for Cc1c2ccccc2cc2c3c(ccc12)C(=O)C(=O)C=C3 ?
Output: inactive

Task: Could you check what this test reported for O=C(O)c1cc(Cl)cc(Cl)c1 ?
Output: inactive

Task: Could you check what this test reported for O=C(Cl)c1ccc(Cl)cc1Cl ?
Output: inactive

Task: Could you check what this test reported for O=CCC=O ?
Output: active

Task: Could you check what this test reported for CCCCCCCCBr ?
Output: inactive
